Target: DLK (Homo sapiens, UniProt Q12852)
Construct: 10 nM DLK, catalytic domain, Carna Biosiences; purchased Carna Biosciences ('Carna Biosiences' [sic])
Sequence (Q12852 125-366 limits assumed): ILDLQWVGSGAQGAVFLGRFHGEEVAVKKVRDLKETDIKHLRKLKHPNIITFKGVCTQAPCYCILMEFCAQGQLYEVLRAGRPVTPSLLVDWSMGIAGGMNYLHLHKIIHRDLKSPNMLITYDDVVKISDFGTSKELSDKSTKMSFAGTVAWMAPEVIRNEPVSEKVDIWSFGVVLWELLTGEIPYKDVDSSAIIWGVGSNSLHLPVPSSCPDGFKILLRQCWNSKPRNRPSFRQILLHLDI
Assay: DLK biochemical assay (TR-FRET, MKK7 phosphorylation)
I'd appreciate it if you could supply IC50 values for the items below.
Give the quantity in nM, number only.

Please report IC50 for the following compound: Nc1nc2cc(-c3cnn(Cc4ccccc4)c3)cc(-c3ccc(C4CC4)nc3)n2n1 [II-47]
33

Indicate the recorded IC50 value for this compound: Nc1nc2cc(-c3cnn(Cc4ccccc4)c3)cc(-c3cnn(C(F)F)c3)n2n1 [II-121]
32

Read the entry CCC(c1ccc(C(F)(F)F)nc1)n1cc(-c2cc(-c3ccc(=O)n(CC(F)(F)F)c3)n3nc(N)nc3c2)cn1 (single isomer, unassigned) [II-189] and write its reported IC50.
15

Report measured IC50; entry is CCC(c1ccc(C(F)(F)F)nc1)n1cc(-c2cc(-c3ccc(C(F)(F)F)nc3)c3nc(N)nn3c2)cn1 (racemic) [II-37]
46

Give reported IC50 value for CC[C@@H](c1ccc(C(F)(F)F)nc1)n1cc(-c2cc(-c3ccc(=O)n(CC(F)(F)F)c3)n3nc(N)nc3c2)cn1 [II-190]
2.9

Provide IC50 value for the following compound: CCC(c1ccc(C(F)(F)F)nc1)n1cc(-c2cc(-c3ccc(=O)n(C(F)F)c3)n3nc(N)nc3c2)cn1 (single isomer, unassigned) [II-180]
34

Identify the reported IC50 for the following entry. CC(C)C(c1ccc(C(F)(F)F)nc1)n1cc(-c2cc(-c3ccc(C(F)(F)F)nc3)c3nc(N)nn3c2)cn1 (single isomer, unassigned) [II-41]
380

====

Molecular target: LZK (Homo sapiens)
Construct: 10 nM LZK, catalytic domain, Carna Biosiences in assay buffer; purchased Carna Biosciences ('Carna Biosiences' [sic])
Sequence (O43283 168-409 limits assumed): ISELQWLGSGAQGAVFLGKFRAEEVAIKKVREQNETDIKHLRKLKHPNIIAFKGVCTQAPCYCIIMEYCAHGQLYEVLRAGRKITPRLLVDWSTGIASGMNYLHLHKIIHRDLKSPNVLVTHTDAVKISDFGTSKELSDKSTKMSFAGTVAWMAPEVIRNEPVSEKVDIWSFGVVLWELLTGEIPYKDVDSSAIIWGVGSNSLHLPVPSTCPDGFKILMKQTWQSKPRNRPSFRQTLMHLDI
Experiment: LZK biochemical assay (TR-FRET, MKK7 phosphorylation)
Measured Endpoint: pIC50
The read-out pIC50 is expressed as -log10 of concentration in moles per litre.

Specify reported pIC50 for the compound shown: CCC(c1ccc(C(F)(F)F)nc1)n1cc(-c2cc(-c3cc(CO)ccc3Cl)c3nc(N)nn3c2)cn1 (single isomer, unassigned) [II-2]
7.52

Give reported pIC50 value for Nc1nc2c(-c3cn(CC(F)(F)F)c(=O)cn3)cc(-c3cnn(C(c4ccc(C(F)(F)F)nc4)C4CCOCC4)c3)cn2n1 (stereo not shown) [II-166]
7.57

// fetch pIC50 given entry CCC(c1ccc(OC(F)(F)F)nc1)n1cc(-c2cc(-c3ccc(=O)n(CC(F)(F)F)c3)c3nc(N)nn3c2)cn1 (single isomer, unassigned) [II-164]
7.77

Give recorded pIC50. CCC(c1ccc(C(F)(F)F)nc1)n1cc(-c2cc(-c3ccnc(C4(F)CC4)c3)n3nc(N)nc3c2)cn1 (racemic) [II-31]
8.21

Return value of pIC50 for input CC(C)C(c1ccc(C(F)(F)F)nc1)n1cc(-c2cc(-c3ccc(C4(O)CCC4)nc3)n3nc(N)nc3c2)cn1 (racemic) [II-80] , no commentary.
7.77

Tell me measured pIC50 for CC[C@@H](c1ccccc1)n1cc(-c2cc(-c3ccc(=O)[nH]c3)n3nc(N)nc3c2)cn1 please.
7.13

Identify measured pIC50 associated with CC(C)C(c1ccc(C(F)(F)F)nc1)n1cc(-c2cc(-c3ccc(C(F)F)nc3)n3nc(N)nc3c2)cn1 (single isomer, unassigned) [II-72]
7.77

State, in one line, measured pIC50 of CCC(c1ccc(C(F)(F)F)nc1)n1cc(-c2cc(-c3ccc(=O)n(CC(F)(F)F)c3)n3nc(N)nc3c2)cn1 (stereo not shown) [II-188]
8.00

Kindly indicate its recorded pIC50. Item: CCC(c1ccc(C(F)(F)F)nc1)n1cc(-c2cc(-c3ccnc(C4(F)CC4)c3)n3nc(N)nc3c2)cn1 (single isomer, unassigned) [II-32]
7.80

Please list pIC50 recorded for the compound Nc1nc2c(-c3cc(CO)ccc3Cl)cc(-c3cnn(C(c4ccc(C(F)(F)F)nc4)C4CCOCC4)c3)cn2n1 (single isomer, unassigned) [II-5]
8.77

Recall and state the measured pIC50 for Nc1nc2cc(-c3cnn(C(c4ccc(C(F)(F)F)nc4)C4CCOCC4)c3)cc(-c3cnn(CC(F)(F)F)c3)n2n1 (single isomer, unassigned) [II-150] .
8.31

Name the recorded pIC50 of the item CCC(c1ccc(C(F)(F)F)nc1)n1cc(-c2cc(-c3cnn(CC(F)F)c3)c3nc(N)nn3c2)cn1 (single isomer, unassigned) [II-110] in your answer.
8.01

State its pIC50: Nc1nc2c(-c3ccc(=O)n(C(F)F)c3)cc(-c3cnn(C(c4ccc(C(F)(F)F)nc4)C4CCOCC4)c3)cn2n1 (single isomer, unassigned) [II-154]
7.82

====

Target: DLK (Homo sapiens, UniProt Q12852)
Construct: 10 nM DLK, catalytic domain, Carna Biosiences; purchased Carna Biosciences ('Carna Biosiences' [sic])
Sequence (Q12852 125-366 limits assumed): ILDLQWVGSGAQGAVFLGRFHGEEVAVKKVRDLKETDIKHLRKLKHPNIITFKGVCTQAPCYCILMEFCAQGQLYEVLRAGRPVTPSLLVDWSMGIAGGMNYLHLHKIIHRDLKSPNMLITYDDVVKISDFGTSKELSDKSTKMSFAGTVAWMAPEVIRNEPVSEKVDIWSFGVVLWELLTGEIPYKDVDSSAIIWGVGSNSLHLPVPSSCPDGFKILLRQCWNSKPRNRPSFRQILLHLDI
Assay: DLK biochemical assay (TR-FRET, MKK7 phosphorylation)
Details: DLK catalytic domain, MKK7 substrate, 60 μM ATP
Decide using IC50 alone. Strictly below 3 nM: criterion met. Equal to or above 3 nM: criterion not met.

Is 3 nM strictly greater than the compound's reported IC50? compound: CC[C@H](C)NC(=O)c1cc(-c2cnn(C(c3ccc(OCC(F)(F)F)nc3)C3CC3)c2)cc2nc(N)nn12 (mixture of isomers) [Example I-119]
criterion not met

Below 3 nM on IC50? Entry CC[C@H](C)NC(=O)c1cc(-c2cnn([C@@H](CC)c3ccc(C(F)(F)F)nc3)c2)cc2nc(N)nn12 (single isomer, unassigned)
criterion met

Determine if CC[C@H](C)NC(=O)c1cc(-c2cnn([C@@H](CC)c3ccc(C(F)F)nc3)c2)cc2nc(N)nn12 (single isomer, unassigned) shows IC50 strictly lower than 3 nM.
criterion met

Problem: For the compound CC[C@H](C)NC(=O)c1cc(-c2cnn(C(c3cncc(Cl)c3)C(C)C)c2)cn2nc(N)nc12 (single isomer, unassigned) [Example I-62] , is IC50 under 3 nM?
criterion not met

Regarding CC(C)(CO)NC(=O)c1cc(-c2cnn(C(c3ccc(C(F)(F)F)nc3)C3CCOCC3)c2)cn2nc(N)nc12 (racemic) [Example I-166] , kindly confirm whether its IC50 is beneath 3 nM.
criterion not met

I'd appreciate it if you could check whether CC[C@H](C)NC(=O)c1cc(-c2cnn([C@H](c3ccc(C(F)(F)F)nc3)C3CCN(C(=O)OC(C)(C)C)CC3)c2)cn2nc(N)nc12 has IC50 smaller than 3 nM.
criterion not met

Given CC[C@H](C)NC(=O)c1cc(-c2cnn(C(c3ccccc3)C3(C)CC3)c2)cn2nc(N)nc12 (single isomer, unassigned) [Example I-29] , is recorded IC50 strictly lower than 3 nM?
criterion met

Could you please tell me whether IC50 recorded for CC[C@H](c1ccc(C(F)(F)F)nc1)n1cc(-c2cc(C(=O)N[C@@H](C)CC)c3nc(N)nn3c2)cn1 (single isomer, unassigned) is less than 3 nM?
criterion not met

Dear reviewer, please state whether CC[C@H](C)NC(=O)c1cc(-c2cnn(C(c3ccccc3)C3CCOCC3)c2)cc2nc(N)nn12 (single isomer, unassigned) [Example I-52] has IC50 strictly beneath 3 nM.
criterion met

Please determine if CC[C@H](C)NC(=O)c1cc(-c2cnn(C(c3ccc(OCC(F)(F)F)nc3)C(C)C)c2)cn2nc(N)nc12 (single isomer, unassigned) [Example I-89] is below 3 nM in terms of IC50.
criterion not met

Report whether reported IC50 is lower than 3 nM (strictly) for CC[C@H](C)NC(=O)c1cc(-c2cnn(C(c3ccccc3)C(C)C)c2)cc2nc(N)nn12 (mixture of isomers) [Example I-24]
criterion met
